Tested on: 941728-121-R-J1-PDC complex spheroid viability
Test: Anticancer human tumor 941728-121-R-J1-PDC patient-derived lung adenocarcinoma cell line growth inhibition [RAS]
Details: second compound 0.1 µM; first compound 0.1 µM; active compounds read low
metric: viability, T/C

compound="CCN1CCN(Cc2ccc(Nc3ncc(F)c(-c4cc(F)c5nc(C)n(C(C)C)c5c4)n3)nc2)CC1 + C=CC(=O)N1CCN(c2nc(OCC3CCCN3C)nc3c(F)c(-c4nc(N)cc(C)c4C(F)(F)F)c(Cl)cc23)C(C)C1" test_result=15.8%

Ask: Record request: viability, T/C value, item CC1(O)CCCC1n1c(=O)c(C(F)F)cc2cnc(NC3CCN(S(C)(=O)=O)CC3)nc21 (centres undefined) + C#Cc1c(F)ccc2cc(O)cc(-c3ncc4c(N5CC6CCC(C5)N6)nc(OCC56CCCN5CC(F)C6)nc4c3F)c12
Result: 72%

Ask: Same lookup for CC(=O)OC12COC1CC(O)C1(C)C(=O)C(O)C3=C(C)C(OC(=O)C(O)C(NC(=O)OC(C)(C)C)c4ccccc4)CC(O)(C(OC(=O)c4ccccc4)C21)C3(C)C (centres undefined) + C=CC(=O)N1CCN(c2nc(OCC3CCCN3C)nc3c(F)c(-c4nc(N)cc(C)c4C(F)(F)F)c(Cl)cc23)C(C)C1 , please.
Result: 15.6%

Ask: Same lookup for C=CC(=O)N1CCN(c2nc(OCC3CCCN3C)nc3c(F)c(-c4nc(N)cc(C)c4C(F)(F)F)c(Cl)cc23)C(C)C1 (centres undefined) + C#Cc1c(F)ccc2cc(O)cc(-c3ncc4c(N5CC6CCC(C5)N6)nc(OCC56CCCN5CC(F)C6)nc4c3F)c12 , please.
Result: 20.7%

----------
Test system: 941728-121-R-J1-PDC complex spheroid viability
Assay: Anticancer human tumor 941728-121-R-J1-PDC cell line growth inhibition [RAS];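 also: spheroids exposed to compounds for 7 days before readout; 100% = DMSO vehicle control viability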
Conditions: second compound 0.1 µM; first compound 0.0316 µM; active compounds read low
Below is a list of entries, each paired with its recorded viability, T/C value.
Form entry: value (%) — number only.

compound="C=CC(=O)N1CCN(c2nc(OCC3CCCN3C)nc3c(F)c(-c4nc(N)cc(C)c4C(F)(F)F)c(Cl)cc23)C(C)C1 (centres undefined) + C#Cc1c(F)ccc2cc(O)cc(-c3ncc4c(N5CC6CCC(C5)N6)nc(OCC56CCCN5CC(F)C6)nc4c3F)c12" metric="viability, T/C" units_text=% test_result=21.8
compound="CCC(CC)c1cc(NC2CCC(N)C2)n2nccc2n1 (centres undefined) + C=CC(=O)N1CCN(c2nc(OCC3CCCN3C)nc3c(F)c(-c4nc(N)cc(C)c4C(F)(F)F)c(Cl)cc23)C(C)C1" metric="viability, T/C" units_text=% test_result=19.7

Ask: Record request: viability, T/C value, item CC(=O)OC12COC1CC(O)C1(C)C(=O)C(O)C3=C(C)C(OC(=O)C(O)C(NC(=O)OC(C)(C)C)c4ccccc4)CC(O)(C(OC(=O)c4ccccc4)C21)C3(C)C (centres undefined) + C#Cc1c(F)ccc2cc(O)cc(-c3ncc4c(N5CC6CCC(C5)N6)nc(OCC56CCCN5CC(F)C6)nc4c3F)c12
Result: 41.8

Ask: Same lookup for C[C@@H](NC(=O)c1ncnc(N)c1Cl)c1ncc(C(=O)Nc2cc(C(F)(F)F)c(Cl)cn2)s1 + C=CC(=O)N1CCN(c2nc(OCC3CCCN3C)nc3c(F)c(-c4nc(N)cc(C)c4C(F)(F)F)c(Cl)cc23)C(C)C1 , please.
Result: 26.8

----------
Test system: 941728-121-R-J1-PDC complex spheroid viability
Assay: Anticancer human tumor 941728-121-R-J1-PDC cell line growth inhibition [RAS];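 also: spheroids exposed to compounds for 7 days before readout; 100% = DMSO vehicle control viability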
Conditions: second compound 0.3 µM; first compound 0.0316 µM; active compounds read low
metric: viability, T/C (%)
Form entry: value (%) — number only.

molecule="CC(Nc1ccc2c(c1)OCCn1cc(N3C(=O)OCC3C(F)F)nc1-2)C(N)=O (stereo not drawn) + CCn1c(-c2cc(N3CCN(C)CC3)cnc2C(C)OC)c2c3cc(ccc31)-c1csc(n1)CC(NC(=O)C1CC1C)C(=O)N1CCCC(N1)C(=O)OCC(C)(C)C2" tgt="941728-121-R-J1-PDC complex spheroid viability" metric="viability, T/C" test_result=11.4
molecule="CC(C)NCC(C(=O)N1CCN(c2ncnc3c2C(C)CC3O)CC1)c1ccc(Cl)cc1 (stereo not drawn) + CCn1c(-c2cc(N3CCN(C)CC3)cnc2C(C)OC)c2c3cc(ccc31)-c1csc(n1)CC(NC(=O)C1CC1C)C(=O)N1CCCC(N1)C(=O)OCC(C)(C)C2" tgt="941728-121-R-J1-PDC complex spheroid viability" metric="viability, T/C" test_result=11.1

# evaluate next
Ask: # query: viability, T/C | item C=CC(=O)N1CCN(c2nc(OCC3CCCN3C)nc3c(F)c(-c4nc(N)cc(C)c4C(F)(F)F)c(Cl)cc23)C(C)C1 (stereo not drawn) + CCn1c(-c2cc(N3CCN(C)CC3)cnc2C(C)OC)c2c3cc(ccc31)-c1csc(n1)CC(NC(=O)C1CC1C)C(=O)N1CCCC(N1)C(=O)OCC(C)(C)C2 | system: 941728-121-R-J1-PDC complex spheroid viability
Result: 17.1

----------
Tested on: 941728-121-R-J1-PDC complex spheroid viability
Assay: Anticancer human tumor 941728-121-R-J1-PDC cell line growth inhibition [RAS];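 also: spheroids exposed to compounds for 7 days before readout; 100% = DMSO vehicle control viability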
Settings: second compound 1 µM; first compound 0.00316 µM; active compounds read low
Below is a list of entries, each paired with its recorded viability, T/C value.
Form entry: value (%) — number only.

compound="O=C(c1ccc(F)c(F)c1Nc1ccc(I)cc1F)N1CC(O)([C@@H]2CCCCN2)C1 + C#Cc1c(F)ccc2cc(O)cc(-c3ncc4c(N5CC6CCC(C5)N6)nc(OCC56CCCN5CC(F)C6)nc4c3F)c12" test_result=33.8
compound="CCN1CCN(Cc2ccc(Nc3ncc(F)c(-c4cc(F)c5nc(C)n(C(C)C)c5c4)n3)nc2)CC1 + C=CC(=O)N1CCN(c2nc(OCC3CCCN3C)nc3c(F)c(-c4nc(N)cc(C)c4C(F)(F)F)c(Cl)cc23)C(C)C1" test_result=21.6
compound="C=CC(=O)Nc1cc(Nc2nccc(-c3cn(C)c4ccccc34)n2)c(OC)cc1N(C)CCN(C)C + C=CC(=O)N1CCN(c2nc(OCC3CCCN3C)nc3c(F)c(-c4nc(N)cc(C)c4C(F)(F)F)c(Cl)cc23)C(C)C1" test_result=20.6
compound="O=C(c1ccc(F)c(F)c1Nc1ccc(I)cc1F)N1CC(O)([C@@H]2CCCCN2)C1 + C=CC(=O)N1CCN(c2nc(OCC3CCCN3C)nc3c(F)c(-c4nc(N)cc(C)c4C(F)(F)F)c(Cl)cc23)C(C)C1" test_result=16.4
compound="Nc1ccn(C2OC(CO)C(O)C2(F)F)c(=O)n1 (stereo unspecified) + C#Cc1c(F)ccc2cc(O)cc(-c3ncc4c(N5CC6CCC(C5)N6)nc(OCC56CCCN5CC(F)C6)nc4c3F)c12" test_result=33.9

# evaluate next
Ask: Record request: viability, T/C value, item CC(C)n1nc(-c2ccc3oc(N)nc3c2)c2c(N)ncnc21 + C=CC(=O)N1CCN(c2nc(OCC3CCCN3C)nc3c(F)c(-c4nc(N)cc(C)c4C(F)(F)F)c(Cl)cc23)C(C)C1
Result: 16.6

----------
Below is a list of entries, each paired with its recorded viability, T/C value.
System: 941728-121-R-J1-PDC complex spheroid viability
Test: Anticancer human tumor 941728-121-R-J1-PDC cell line growth inhibition [RAS];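 also: spheroids exposed to compounds for 7 days before readout; 100% = DMSO vehicle control viability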
Conditions: second compound 0.3 µM; first compound 0.00316 µM; active compounds read low

The following compounds have reported results that may help.
compound="O=C(c1ccc(F)c(F)c1Nc1ccc(I)cc1F)N1CC(O)([C@@H]2CCCCN2)C1 + CCn1c(-c2cc(N3CCN(C)CC3)cnc2C(C)OC)c2c3cc(ccc31)-c1csc(n1)CC(NC(=O)C1CC1C)C(=O)N1CCCC(N1)C(=O)OCC(C)(C)C2" tgt="941728-121-R-J1-PDC complex spheroid viability" metric="viability, T/C" test_result=12%
compound="O=C(c1ccc(F)c(F)c1Nc1ccc(I)cc1F)N1CC(O)([C@@H]2CCCCN2)C1 + CCn1c(-c2cccnc2C(C)OC)c2c3cc(ccc31)N1CCOC(CC(NC(=O)C(C(C)C)N(C)C(=O)C3(F)CCN(C(=O)C#CC(C)(C)N(C)C)CC3)C(=O)N3CCCC(N3)C(=O)OCC(C)(C)C2)C1" tgt="941728-121-R-J1-PDC complex spheroid viability" metric="viability, T/C" test_result=17.9%
compound="CC(C)n1nc(-c2ccc3oc(N)nc3c2)c2c(N)ncnc21 + CCn1c(-c2cccnc2C(C)OC)c2c3cc(ccc31)N1CCOC(CC(NC(=O)C(C(C)C)N(C)C(=O)C3(F)CCN(C(=O)C#CC(C)(C)N(C)C)CC3)C(=O)N3CCCC(N3)C(=O)OCC(C)(C)C2)C1" tgt="941728-121-R-J1-PDC complex spheroid viability" metric="viability, T/C" test_result=18.9%

# evaluate next
Ask: Record request: viability, T/C value, item Nc1ccn(C2OC(CO)C(O)C2(F)F)c(=O)n1 (centres undefined) + CCn1c(-c2cccnc2C(C)OC)c2c3cc(ccc31)N1CCOC(CC(NC(=O)C(C(C)C)N(C)C(=O)C3(F)CCN(C(=O)C#CC(C)(C)N(C)C)CC3)C(=O)N3CCCC(N3)C(=O)OCC(C)(C)C2)C1
Result: 20.3%
